- System: mESC Bmi1-luciferase reporter, firefly/renilla ratio, 24 h
- Test: compounds raising Bmi1 reporter signal – mouse embryonic stem cells, luciferase, cherry-pick, esBAF inhibitor project, dose response (AID 651717);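 note: luciferase knocked into Bmi1 locus with EF-1a renilla as cell number control; rising ratio signals esBAF inhibition which derepresses Bmi1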
Here the recorded AC40 is given for each entry.
Measured Metric: AC40

>  <Compound>
CSc1ccc(CNc2ccc(C)c(C)c2)cc1

>  <Measured On>
mESC Bmi1-luciferase reporter, firefly/renilla ratio, 24 h

>  <Result>
2.83 µM

$$$$
>  <Compound>
c1ccc2cc(C3CCCCC3)ncc2c1

>  <Measured On>
mESC Bmi1-luciferase reporter, firefly/renilla ratio, 24 h

>  <Result>
4.49 µM

$$$$
>  <Compound>
C(=N\N1CCN(c2ccccc2)CC1)/c1ccccc1

>  <Measured On>
mESC Bmi1-luciferase reporter, firefly/renilla ratio, 24 h

>  <Result>
4.79 µM

$$$$
>  <Compound>
Cn1c(CSc2ccccc2)c(C#N)c2ccccc21

>  <Measured On>
mESC Bmi1-luciferase reporter, firefly/renilla ratio, 24 h

>  <Result>
6.77 µM

$$$$
>  <Compound>
CC(NC(=O)c1cc(COc2ccc(-n3cncn3)cc2)on1)c1ccc(F)cc1 (centres undefined)

>  <Measured On>
mESC Bmi1-luciferase reporter, firefly/renilla ratio, 24 h

>  <Result>
5.4 µM

$$$$
>  <Compound>
Cc1ccc(NC(=O)c2cccc3ccccc23)cc1

>  <Measured On>
mESC Bmi1-luciferase reporter, firefly/renilla ratio, 24 h

>  <Result>
13.9 µM

$$$$
>  <Compound>
CN(C)c1ccc(-c2csc(C(O)c3ccc(F)cc3)n2)cc1 (centres undefined)

>  <Measured On>
mESC Bmi1-luciferase reporter, firefly/renilla ratio, 24 h

>  <Result>
1.63 µM

$$$$
>  <Compound>
CSc1nnc(NC(=O)c2cc3ccccc3oc2=O)s1

>  <Measured On>
mESC Bmi1-luciferase reporter, firefly/renilla ratio, 24 h

>  <Result>
5.97 µM

$$$$
>  <Compound>
O=C1NCCC/C1=N/Nc1cc(F)ccc1F

>  <Measured On>
mESC Bmi1-luciferase reporter, firefly/renilla ratio, 24 h

>  <Result>
2.6 µM

$$$$
>  <Compound>
CCN(CC)S(=O)(=O)c1ccc2c(c1)nc(-c1ccccn1)n2C

>  <Measured On>
mESC Bmi1-luciferase reporter, firefly/renilla ratio, 24 h

>  <Result>
11.1 µM

$$$$
>  <Compound>
COc1ccc(CNC(=O)Nc2ccc(C)cc2)cc1

>  <Measured On>
mESC Bmi1-luciferase reporter, firefly/renilla ratio, 24 h

>  <Result>
8.63 µM

$$$$
>  <Compound>
O=C(CCNS(=O)(=O)c1cccs1)N1CCc2ccccc2C1

>  <Measured On>
mESC Bmi1-luciferase reporter, firefly/renilla ratio, 24 h

>  <Result>
6.72 µM

$$$$
>  <Compound>
CC(C)(O)c1cc2ccc(C#Cc3ccsc3)cc2c(=O)o1

>  <Measured On>
mESC Bmi1-luciferase reporter, firefly/renilla ratio, 24 h

>  <Result>
3.42 µM

$$$$
>  <Compound>
Cc1nc(-c2ccccc2)nc2[nH]ccc(=O)c12

>  <Measured On>
mESC Bmi1-luciferase reporter, firefly/renilla ratio, 24 h

>  <Result>
4.23 µM

$$$$
>  <Compound>
Clc1ccc(/C=N/Nc2nc(Cl)nc3ccccc23)cc1

>  <Measured On>
mESC Bmi1-luciferase reporter, firefly/renilla ratio, 24 h

>  <Result>
1.35 µM

$$$$
>  <Compound>
Cc1cc(NC(=O)CC2CCCC2)ccc1Br

>  <Measured On>
mESC Bmi1-luciferase reporter, firefly/renilla ratio, 24 h

>  <Result>
11.8 µM

$$$$
>  <Compound>
COc1ccc(OCc2cc(C(=O)NC(C)c3nc(C)cs3)no2)c(Cl)c1 (centres undefined)

>  <Measured On>
mESC Bmi1-luciferase reporter, firefly/renilla ratio, 24 h

>  <Result>
10.4 µM

$$$$
>  <Compound>
COc1ccccc1C=Cc1ccnc2ccccc12

>  <Measured On>
mESC Bmi1-luciferase reporter, firefly/renilla ratio, 24 h

>  <Result>
7.65 µM

$$$$
>  <Compound>
CC(=O)c1ccc(S(=O)(=O)N(Cc2cc3cc4c(cc3[nH]c2=O)OCCO4)CC2CCCO2)cc1 (centres undefined)

>  <Measured On>
mESC Bmi1-luciferase reporter, firefly/renilla ratio, 24 h

>  <Result>
15.2 µM

$$$$
>  <Compound>
COc1ccc(C(=O)NCc2ccc(-c3nc4ccccc4s3)cc2)cc1

>  <Measured On>
mESC Bmi1-luciferase reporter, firefly/renilla ratio, 24 h

>  <Result>
6.13 µM

$$$$
>  <Compound>
Cc1cccc(N=[N+]([O-])c2cccc(C)n2)n1

>  <Measured On>
mESC Bmi1-luciferase reporter, firefly/renilla ratio, 24 h

>  <Result>
6.4 µM

$$$$
>  <Compound>
CN(Cc1nccs1)C(=O)c1ccc2nc(Cc3ccccc3F)oc2c1

>  <Measured On>
mESC Bmi1-luciferase reporter, firefly/renilla ratio, 24 h

>  <Result>
0.952 µM

$$$$
>  <Compound>
Cc1nc2c(sc3nc4c(cc32)COC(C)(C)C4)c(=O)n1Cc1ccccc1

>  <Measured On>
mESC Bmi1-luciferase reporter, firefly/renilla ratio, 24 h

>  <Result>
1.18 µM

$$$$
>  <Compound>
CCCCSc1nnc(-c2ccc(OC)cc2)n1C

>  <Measured On>
mESC Bmi1-luciferase reporter, firefly/renilla ratio, 24 h

>  <Result>
9.08 µM

$$$$
>  <Compound>
CC(=O)c1ccc(OCc2ccccc2)c(C)c1O

>  <Measured On>
mESC Bmi1-luciferase reporter, firefly/renilla ratio, 24 h

>  <Result>
9.35 µM

$$$$
>  <Compound>
CNC(=O)c1ccc(-c2cc3onc(-c4ccccc4)c3c(=O)n2C)cc1

>  <Measured On>
mESC Bmi1-luciferase reporter, firefly/renilla ratio, 24 h

>  <Result>
1.16 µM

$$$$
>  <Compound>
CC(C)C(=O)N1CCN(c2nc3ccc(Cl)cc3s2)CC1

>  <Measured On>
mESC Bmi1-luciferase reporter, firefly/renilla ratio, 24 h

>  <Result>
3.33 µM

$$$$
>  <Compound>
CN(C)c1ccc(CN(C(=O)c2cc3ccccc3oc2=O)C2CCS(=O)(=O)C2)cc1 (centres undefined)

>  <Measured On>
mESC Bmi1-luciferase reporter, firefly/renilla ratio, 24 h

>  <Result>
3.62 µM

$$$$
>  <Compound>
S=c1[nH]nc(SCc2ccccc2)c2[nH]cnc12

>  <Measured On>
mESC Bmi1-luciferase reporter, firefly/renilla ratio, 24 h

>  <Result>
5.52 µM

$$$$
>  <Compound>
COc1ccc(-c2cc(C(=O)N3CCCC3)no2)cc1OC

>  <Measured On>
mESC Bmi1-luciferase reporter, firefly/renilla ratio, 24 h

>  <Result>
7.36 µM

$$$$
>  <Compound>
COc1ccc(-c2csc(C(O)c3ccccc3)n2)cc1 (centres undefined)

>  <Measured On>
mESC Bmi1-luciferase reporter, firefly/renilla ratio, 24 h

>  <Result>
5.06 µM

$$$$
>  <Compound>
Cc1ccc(C)c(N2CCN(C(=O)CCc3nc(-c4ccccc4Br)no3)CC2)c1

>  <Measured On>
mESC Bmi1-luciferase reporter, firefly/renilla ratio, 24 h

>  <Result>
15.8 µM

$$$$
>  <Compound>
Cc1ccc2[nH]c(C(=O)N3CCCCC3)cc2c1

>  <Measured On>
mESC Bmi1-luciferase reporter, firefly/renilla ratio, 24 h

>  <Result>
6.79 µM

$$$$
>  <Compound>
c1ccc(C2Oc3ccccc3C3CC(c4cccs4)=NN32)cc1 (centres undefined)

>  <Measured On>
mESC Bmi1-luciferase reporter, firefly/renilla ratio, 24 h

>  <Result>
8.04 µM

$$$$
>  <Compound>
CNc1nc(-c2ccc3c(c2)CCN3C(=O)c2ccc(F)cc2)cs1

>  <Measured On>
mESC Bmi1-luciferase reporter, firefly/renilla ratio, 24 h

>  <Result>
8.13 µM

$$$$
>  <Compound>
CCCC(=O)N1CCN(c2nc3ccc(Br)cc3s2)CC1

>  <Measured On>
mESC Bmi1-luciferase reporter, firefly/renilla ratio, 24 h

>  <Result>
1.7 µM

$$$$
>  <Compound>
O=c1/c(=C\c2cccnc2)sc2nc3ccccc3n12

>  <Measured On>
mESC Bmi1-luciferase reporter, firefly/renilla ratio, 24 h

>  <Result>
9.85 µM

$$$$
>  <Compound>
CC(=O)Nc1ccc2c(c1Br)Cc1ccccc1-2

>  <Measured On>
mESC Bmi1-luciferase reporter, firefly/renilla ratio, 24 h

>  <Result>
2.53 µM

$$$$
>  <Compound>
Nc1nc(-c2ccc(Oc3ccccc3)cc2)cs1

>  <Measured On>
mESC Bmi1-luciferase reporter, firefly/renilla ratio, 24 h

>  <Result>
7.87 µM

$$$$
>  <Compound>
Oc1ccc(Cl)cc1C=NN1CCCCCC1

>  <Measured On>
mESC Bmi1-luciferase reporter, firefly/renilla ratio, 24 h

>  <Result>
1.37 µM

$$$$
>  <Compound>
CCSc1nnc(NC(=O)c2ccc3nc[nH]c3c2)s1

>  <Measured On>
mESC Bmi1-luciferase reporter, firefly/renilla ratio, 24 h

>  <Result>
12.7 µM

$$$$
>  <Compound>
c1ccc(Nc2cccc(Nc3ccccc3)n2)cc1

>  <Measured On>
mESC Bmi1-luciferase reporter, firefly/renilla ratio, 24 h

>  <Result>
4.8 µM

$$$$
>  <Compound>
CN(C)c1ccc(N=Nc2ccccc2C(=O)OCC(=O)Nc2ccccc2C(F)(F)F)cc1

>  <Measured On>
mESC Bmi1-luciferase reporter, firefly/renilla ratio, 24 h

>  <Result>
4.61 µM

$$$$
>  <Compound>
COc1cc2c(cc1OC)C(=Cc1ccc(N(C)C)cc1)C=C2

>  <Measured On>
mESC Bmi1-luciferase reporter, firefly/renilla ratio, 24 h

>  <Result>
2.44 µM

$$$$
>  <Compound>
c1ccc(-c2nc3c(ccc4ccccc43)[nH]2)nc1

>  <Measured On>
mESC Bmi1-luciferase reporter, firefly/renilla ratio, 24 h

>  <Result>
0.96 µM

$$$$
>  <Compound>
O=C(Cc1ccc(Cl)cc1)c1ccccc1

>  <Measured On>
mESC Bmi1-luciferase reporter, firefly/renilla ratio, 24 h

>  <Result>
1.84 µM

$$$$
>  <Compound>
O=C(Nc1ccc(Nc2ccccc2)cc1)Nc1ccccc1Cl

>  <Measured On>
mESC Bmi1-luciferase reporter, firefly/renilla ratio, 24 h

>  <Result>
4.5 µM

$$$$
>  <Compound>
COc1ccc(-c2csc(Nc3cccc(C)n3)n2)cc1OC

>  <Measured On>
mESC Bmi1-luciferase reporter, firefly/renilla ratio, 24 h

>  <Result>
1.44 µM

$$$$
>  <Compound>
COc1ccccc1C(=O)Oc1ccccc1C(=O)Nc1ccccc1

>  <Measured On>
mESC Bmi1-luciferase reporter, firefly/renilla ratio, 24 h

>  <Result>
5.18 µM

$$$$
